These entries and their values trace back to ChEMBL document CHEMBL1201862.

test system: KM-20L2; experiment: NCI tumour cell line growth inhibition, 48 h
Calls of active or inactive are those of the source. No stated cut-off is given here; in the data, active = GI50 up to about 1.1 µM and inactive = higher.
measured_property: GI50

molecule	assayed_target	measured_property	observed_measurement
CCCCCCCCCCCCNC(=S)OC	KM-20L2	GI50	16.3 µM (inactive)
Cc1ccc2[nH]c3c4c5ccccc5nc-4c[nH]c3c2c1	KM-20L2	GI50	15.1 µM (inactive)
O=C(c1nc2ccc([N+](=O)[O-])cc2nc1O)C(O)c1ccc2c(c1)OCO2 (stereo unspecified)	KM-20L2	GI50	47 µM (inactive)
CCN(CC)CCn1c2ccccc2c(=O)c2c(OC)ccc(OC)c21	KM-20L2	GI50	45.2 µM (inactive)
COc1cc2ccnc3c2c(c1OC)CC1CC(O)C(OC)CC31 (stereo unspecified)	KM-20L2	GI50	43.2 µM (inactive)
O=C1c2ccccc2C(=O)c2nc3ccc(Cl)cc3cc21	KM-20L2	GI50	> 100 µM (inactive)
